# reported (αSN1-1)/(αSN1), 24 hours, 11° C.; entries follow
- SYSTEM UNDER TEST: T1, alpha-s1 casein from Bos taurus
- T1 chain: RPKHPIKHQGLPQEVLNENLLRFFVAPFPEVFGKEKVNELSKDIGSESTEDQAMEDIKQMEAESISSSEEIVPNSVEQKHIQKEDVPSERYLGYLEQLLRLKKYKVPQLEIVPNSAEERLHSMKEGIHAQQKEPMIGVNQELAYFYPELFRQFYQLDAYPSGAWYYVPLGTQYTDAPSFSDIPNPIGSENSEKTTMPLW
EXPERIMENTAL READOUT: (αSN1-1)/(αSN1), 24 hours, 11° C.

# PROTEIN, EXPERIMENTAL VALUE
measured = [
    ("camel chymosin variant #158 (L295F) (protein) GKVAREPLTSYLDSQYFGKIYIGTPPQEFTVVFDTGSSDLWVPSIYCKSNVCKNHHRFDPRKSSTFRNLGKPLSIHYGTGSMEGFLGYDTVTVSNIVDPNQTVGLSTEQPGEVFTYSEFDGILGLAYPSLASEYSVPVFDNMMDRHLVARDLFSVYMDRNGQGSMLTLGAIDPSYYTGSLHWVPVTLQQYWQFTVDSVTINGVAVACVGGCQAILDTGTSVLFGPSSDILKIQMAIGATENRYGEFDVNCGNLRSMPTVVFEINGRDYPLSPSAYTSKDQGFCTSGFQGDNNSEFWILGDVFIREYYSVFDRANNRVGLAKAI", 2.3),
    ("camel chymosin variant #160 (L295K) (protein) GKVAREPLTSYLDSQYFGKIYIGTPPQEFTVVFDTGSSDLWVPSIYCKSNVCKNHHRFDPRKSSTFRNLGKPLSIHYGTGSMEGFLGYDTVTVSNIVDPNQTVGLSTEQPGEVFTYSEFDGILGLAYPSLASEYSVPVFDNMMDRHLVARDLFSVYMDRNGQGSMLTLGAIDPSYYTGSLHWVPVTLQQYWQFTVDSVTINGVAVACVGGCQAILDTGTSVLFGPSSDILKIQMAIGATENRYGEFDVNCGNLRSMPTVVFEINGRDYPLSPSAYTSKDQGFCTSGFQGDNNSEKWILGDVFIREYYSVFDRANNRVGLAKAI", 2.1),
]
